Molecular target: T1, exemplary TAT frataxin fusion molecule (HIV-1, UniProt Q16595 1-210)
T1 construct: in the bridging assays biotinylated and sulfotagged forms were used; also called TAT-FXN fusion molecule; TAT FXN fusion molecule
T1 sequence: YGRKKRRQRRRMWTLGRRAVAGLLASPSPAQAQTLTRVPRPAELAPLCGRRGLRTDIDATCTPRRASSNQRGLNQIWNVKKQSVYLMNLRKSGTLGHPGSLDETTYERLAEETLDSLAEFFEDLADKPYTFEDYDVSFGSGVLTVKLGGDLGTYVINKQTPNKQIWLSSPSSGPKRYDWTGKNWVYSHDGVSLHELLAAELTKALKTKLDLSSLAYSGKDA
Experiment: PK sandwich ELISA in human plasma, antibody as capture, HRP anti-frataxin mAb detection
Measured quantity: Mean OD at plasma conc. 1.60 ng/mL (OD)
Report as a plain number; the unit OD is understood.

For the binder antibody 12-10 (antibody, V domains shown, Rabbit monoclonal) VH: QSLEESGGDLVKPGASLTLTCTASGFSFSSGYWICWVRQAPGKGLEWIACIYTGDGDTSYASWAKGRFTISKTSSTTVTLQMTSLTVADTAIYFCARDTSGTFYYNLWGPGTLVAVSS VL: AAVLTQTPSSVSAAVGGTVTISCQSSESVYKTNYLSWFQKKPGQPPKLLIYDASTLASGVPSRFSGSGSGTQFTLTISDLECDDAATYYCAGGYSDDINAFGGGTEVEIK , give its measured Mean OD at plasma conc. 1.60 ng/mL value.
0.141
